From: patent US9487501B2

# targetSystem: rat TAAR1 (Rattus norvegicus (Rat))
# Sequence (Q923Y9 whole entry): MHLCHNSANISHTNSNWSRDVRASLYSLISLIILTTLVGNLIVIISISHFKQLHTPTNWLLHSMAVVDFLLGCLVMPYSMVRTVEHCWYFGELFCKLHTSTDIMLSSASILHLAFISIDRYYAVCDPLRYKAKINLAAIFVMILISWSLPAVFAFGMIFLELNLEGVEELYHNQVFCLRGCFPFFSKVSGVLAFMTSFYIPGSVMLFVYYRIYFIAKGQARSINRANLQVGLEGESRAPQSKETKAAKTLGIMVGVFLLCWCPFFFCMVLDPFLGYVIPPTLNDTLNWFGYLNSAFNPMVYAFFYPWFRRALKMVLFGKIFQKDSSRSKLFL
# experimentalDetails: Radioligand binding assay on rat TAAR1;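 also: stably transfected HEK293 cell membranes with a tritiated radioligand, 1 h incubation at 4 °C, nonspecific binding taken as binding with 10 µM unlabeled ligand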
# conditionDescription: read-out: Ki (μM) rat; rat TAAR1, membranes of HEK-293 cells, radioligand displacement
Where a name gives a salt, the structure may show the parent alone.
quantity: Ki (µM)

O=C(Nc1ccc([C@H]2CNCCO2)cc1)c1cnn(-c2nc(C(F)(F)F)cs2)c1 [Example 57, hydrochloride]: 0.0011
N#Cc1cccc(-n2cc(C(=O)Nc3ccc([C@H]4CNCCO4)cc3)cn2)c1 [Example 13, hydrochloride]: 0.0072
O=C(Nc1ccc([C@H]2CNCCO2)cc1)c1cnn(-c2ncc(C(F)(F)F)cn2)c1 [Example 37, hydrochloride]: 0.0931

(1) O=C(Nc1ccc([C@@H]2CNCCO2)cc1)c1cnn(-c2ccc(OC(F)F)cc2)c1 [Example 27, hydrochloride]
(2) Nc1c(C(=O)Nc2ccc([C@H]3CNCCO3)cc2)cnn1-c1ccc(F)cc1 [Example 2, dihydrochloride]
(3) O=C(Nc1ccc([C@H]2CNCCO2)cc1)c1cnn(-c2ncc(C(F)(F)F)cc2F)c1 [Example 19, hydrochloride]
(4) O=C(Nc1ccc([C@H]2CNCCO2)cc1)c1cnn(-c2cc(C(F)(F)F)ccn2)c1 [Example 14, hydrochloride]
(5) O=C(Nc1ccc([C@H]2CNCCO2)cc1)c1cnn(-c2cccc(F)c2)c1 [Example 5, hydrochloride]
Could you please sort these 5 entries by Ki from high to low? // rank by listing labels in the order requested 2, 3, 5, 4, 1
(2: 0.401 µM, 3: 0.016 µM, 5: 0.0039 µM, 4: 0.0019 µM, 1: 0.001 µM)

(A) CCOc1cccc(-n2cc(C(=O)Nc3ccc([C@H]4CNCCO4)cc3)cn2)n1 [Example 28, hydrochloride]
(B) O=C(Nc1ccc([C@H]2CNCCO2)cc1)c1cnn(-c2cccc(OC(F)F)c2)c1 [Example 22, hydrochloride]
(C) N#Cc1cnc(-n2cc(C(=O)Nc3ccc([C@H]4CNCCO4)cc3)cn2)cn1 [Example 42, hydrochloride]
(D) O=C(Nc1ccc([C@H]2CNCCO2)cc1)c1cnn(-c2ccc(Cl)cn2)c1 [Example 7, hydrochloride]
Could you please sort these 4 entries by Ki from high to low? // rank by listing labels in the order requested C, D, A, B
(C: 0.0326 µM, D: 0.0046 µM, A: 0.0022 µM, B: 0.0014 µM)
